Molecular target: Mu-type opioid receptor (Homo sapiens) + Delta-type opioid receptor (Homo sapiens) (UniProt P35372+P41143)
Sequence (P35372 whole entry, looked up): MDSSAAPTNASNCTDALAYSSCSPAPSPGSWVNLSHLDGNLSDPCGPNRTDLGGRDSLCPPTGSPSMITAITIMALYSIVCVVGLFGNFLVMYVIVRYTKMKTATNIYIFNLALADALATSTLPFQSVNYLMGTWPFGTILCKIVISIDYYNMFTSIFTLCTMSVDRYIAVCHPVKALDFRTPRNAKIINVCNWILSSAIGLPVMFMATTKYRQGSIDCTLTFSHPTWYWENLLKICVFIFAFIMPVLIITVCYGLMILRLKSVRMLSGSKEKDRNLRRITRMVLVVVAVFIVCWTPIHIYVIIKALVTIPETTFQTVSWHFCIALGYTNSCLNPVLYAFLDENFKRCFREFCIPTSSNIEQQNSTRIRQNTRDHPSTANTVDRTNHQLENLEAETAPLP
Sequence (P41143 whole entry, looked up): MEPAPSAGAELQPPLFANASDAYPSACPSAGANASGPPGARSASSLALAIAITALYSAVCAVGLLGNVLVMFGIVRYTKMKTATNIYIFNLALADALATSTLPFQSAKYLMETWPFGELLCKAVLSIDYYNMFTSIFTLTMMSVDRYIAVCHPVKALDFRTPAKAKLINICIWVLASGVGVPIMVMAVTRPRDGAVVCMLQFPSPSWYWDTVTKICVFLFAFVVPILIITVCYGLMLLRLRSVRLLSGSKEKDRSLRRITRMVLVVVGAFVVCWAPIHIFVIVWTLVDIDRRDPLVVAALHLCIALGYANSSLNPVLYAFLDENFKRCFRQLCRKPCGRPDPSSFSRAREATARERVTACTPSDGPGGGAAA
Experiment: OPRM1-OPRD1 heterodimer inverse agonism – cell-based, luminescence, confirmation (AID 504900);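 further: 0% = cells with DMSO and 100% = wells lacking cells with DMSO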
Conditions: cells expressing OPRM1/OPRD1 heterodimer, at 9.3 µM, hits give high values
Some of the results follow.
property-name: inhibition (%)
Write the value in % as a bare number.

What does the record list as inhibition for CN(c1ccccc1)S(=O)(=O)c1ccc(NC(=O)COc2ccccc2)cc1 ?
-21.8

====

Biological target: Mu-type opioid receptor (Homo sapiens) + Delta-type opioid receptor (Homo sapiens) (UniProt P35372+P41143)
Test: OPRM1-OPRD1 heterodimer inverse agonism – cell-based, luminescence, confirmation (AID 504900);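 further: 0% = cells with DMSO and 100% = wells lacking cells with DMSO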
Settings: cells expressing OPRM1/OPRD1 heterodimer, at 9.3 µM, hits give high values
The list shows a part of the results.
So basically: inhibition at -10% or higher? That is true (1). Lower than -10%? That is false (0).

Below are worked cases with known answers.
compound | assigned-class
Cc1cccc(N=Nc2c(O)[nH]c3ccc(F)cc23)c1 | true (1)
N#CC1=C(N)C(C#N)(C#N)[C@H](c2ccsc2)[C@H]2COCC=C12 | true (1)
Cc1cccc(C)c1NC(=O)C(Cl)C(=O)c1ccccc1 (stereo unspecified) | false (0)
Cc1ccc2c(c1)C(O)(CC(=O)c1cccnc1)C(=O)N2 (stereo unspecified) | true (1)
CCOC(=O)CN1C(=O)C(=O)c2cc(C)ccc21 | false (0)

Form field: inhibition at least -10%? Entry: COC(=O)Cc1c(-c2[nH]c3ccccc3c2CC(=O)OC)[nH]c2ccccc12
false (0)

====

Molecular target: Mu-type opioid receptor (Homo sapiens) + Delta-type opioid receptor (Homo sapiens) (UniProt P35372+P41143)
Test: OPRM1-OPRD1 heterodimer inverse agonism – cell-based, luminescence, confirmation (AID 504900);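 further: 0% = cells with DMSO and 100% = wells lacking cells with DMSO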
Conditions: cells expressing OPRM1/OPRD1 heterodimer, at 9.3 µM, hits give high values
The other results are listed elsewhere or left out. Activity calls are given as the source filed them. Rule as the data show it: active = inhibition above about 32%; inactive = the rest.
Reported inhibition values for the following compounds.

compound | inhibition
CCCCC(=O)NNC(=S)NC(=O)C(c1ccccc1)c1ccccc1 | -427% (inactive)
O=C1C(=O)N(CC2COc3ccccc3O2)c2ccccc21 (stereo not given) | 15.2% (inactive)
O=C1C(=O)N(c2ccccc2)c2ccccc21 | -11.8% (inactive)
Oc1ccc(N=Nc2nccs2)c(O)c1 | 12.6% (inactive)

Switching to the query record.
What does the record list as inhibition for CC(C)OC(=O)CN1C(=O)C(=O)c2ccccc21 ?
-355% (inactive)
